Assay: Clearance in Sprague-Dawley rat at 5 mg/kg, po measured upto 24 hrs by LC/MS/MS analysis
Assay type: ADME, organism-based
Conditions: in vivo
readout.label: CL/F (L/h/kg)
Lab book: enter the figure in L/h/kg, no units written.

COc1ccc(N(C(=O)Nc2c(C)cccc2C)c2cc(Nc3ccc(N4CCN(C)CC4)cc3)ncn2)c(OC)c1 13.4

What value of CL/F has been reported for the following compound? "Cc1cccc(F)c1NC(=O)c1cnc(Nc2ccc(N3CCN(C)CC3)c(F)c2)nc1NC1CC1" 18.9

====

Test: Metabolic stability in human liver microsomes assessed as half life
Assay type: ADME, Microsome
half-life listing for selected compounds.
Lab book: enter the figure in min, no units written.

Cc1cccc(C)c1NC(=O)c1cnc(Nc2ccc(N3CCN(C)CC3)cc2)nc1NC(C)C 24.3
Cc1cccc(C)c1NC(=O)c1cnc(Nc2ccc(N3CCN(C)CC3)cc2)nc1NC1CCC1 44.7

Turning now to a further compound:
What value of half-life has been reported for the following compound? "Cc1cccc(C)c1NC(=O)c1cnc(Nc2ccc(N3CCN(C)CC3)cc2)nc1NC1CCCC1" 32.4
